Kindly supply the reported remaining activity at 100 µM values for the records listed here.
- experimental_system: NR1/NR2A (Rattus norvegicus, UniProt P35439+Q00959)
- Sequence (Q00959 23-1464, other chains not shown): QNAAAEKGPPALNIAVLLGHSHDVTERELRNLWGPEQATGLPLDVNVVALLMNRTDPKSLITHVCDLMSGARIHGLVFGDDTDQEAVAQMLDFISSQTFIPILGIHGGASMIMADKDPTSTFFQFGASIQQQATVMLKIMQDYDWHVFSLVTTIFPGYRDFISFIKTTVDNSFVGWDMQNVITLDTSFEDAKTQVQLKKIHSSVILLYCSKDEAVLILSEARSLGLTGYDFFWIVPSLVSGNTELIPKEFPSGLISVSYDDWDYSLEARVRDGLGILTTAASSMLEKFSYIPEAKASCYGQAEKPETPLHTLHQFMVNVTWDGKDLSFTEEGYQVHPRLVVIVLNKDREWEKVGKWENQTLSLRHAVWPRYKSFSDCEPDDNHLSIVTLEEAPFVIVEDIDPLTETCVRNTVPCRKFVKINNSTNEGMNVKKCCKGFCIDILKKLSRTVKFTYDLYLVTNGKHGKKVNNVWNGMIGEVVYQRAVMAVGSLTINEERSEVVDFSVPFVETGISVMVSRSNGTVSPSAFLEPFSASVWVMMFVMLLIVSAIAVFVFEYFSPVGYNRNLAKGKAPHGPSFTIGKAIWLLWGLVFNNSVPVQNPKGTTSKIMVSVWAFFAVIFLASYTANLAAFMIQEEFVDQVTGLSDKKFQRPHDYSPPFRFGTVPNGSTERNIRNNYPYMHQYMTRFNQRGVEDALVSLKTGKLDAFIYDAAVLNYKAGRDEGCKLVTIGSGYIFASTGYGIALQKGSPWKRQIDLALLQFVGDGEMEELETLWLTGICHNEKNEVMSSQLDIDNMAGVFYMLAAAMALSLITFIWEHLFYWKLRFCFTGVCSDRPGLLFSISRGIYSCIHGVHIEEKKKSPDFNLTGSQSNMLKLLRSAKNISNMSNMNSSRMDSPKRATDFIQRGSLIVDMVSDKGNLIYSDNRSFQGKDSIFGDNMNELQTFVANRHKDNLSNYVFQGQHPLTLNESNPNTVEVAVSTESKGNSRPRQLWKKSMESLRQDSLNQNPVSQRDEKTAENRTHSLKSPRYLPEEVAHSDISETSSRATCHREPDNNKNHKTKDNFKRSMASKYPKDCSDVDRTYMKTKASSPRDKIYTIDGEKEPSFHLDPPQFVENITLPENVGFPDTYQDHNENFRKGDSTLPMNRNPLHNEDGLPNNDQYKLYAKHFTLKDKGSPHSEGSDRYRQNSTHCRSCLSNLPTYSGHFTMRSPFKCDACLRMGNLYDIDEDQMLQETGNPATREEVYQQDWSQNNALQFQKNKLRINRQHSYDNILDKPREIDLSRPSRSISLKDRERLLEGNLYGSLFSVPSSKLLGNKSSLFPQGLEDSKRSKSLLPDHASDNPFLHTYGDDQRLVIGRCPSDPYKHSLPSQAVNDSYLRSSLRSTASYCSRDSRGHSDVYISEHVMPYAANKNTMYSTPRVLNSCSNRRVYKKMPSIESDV
- experiment_summary: Two electrode voltage clamp, Xenopus oocytes expressing recombinant NR1/NR2A
- Assay type: cell-based
- run_conditions: at 100 μM; read-out: 2A percent effect at the maximum tested concentration
Please state the value followed by its unit.

QUERY: Entry under review: "CCN(CC)C(=O)Nc1ccc(C(=O)Nc2cccc3ccccc23)cc1" . Reported remaining activity at 100 µM?
RESULT: 102%

QUERY: Entry under review: "CCN(CC)C(=O)Oc1ccccc1C(=O)Nc1cccc2ccccc12" . Reported remaining activity at 100 µM?
RESULT: 88%

QUERY: Entry under review: "Cn1c(=O)oc2ccc(C(=O)Nc3cccc4ccccc34)cc21" . Reported remaining activity at 100 µM?
RESULT: 92%

QUERY: Entry under review: "CCN(CC)C(=S)Oc1ccc(C(=O)Nc2ccc(Cl)c3ccccc23)cc1" . Reported remaining activity at 100 µM?
RESULT: 92%

QUERY: Entry under review: "O=C(Nc1cccc2ccccc12)c1ccc(Oc2nc(-c3ccccc3)cs2)cc1" . Reported remaining activity at 100 µM?
RESULT: 96%

QUERY: Entry under review: "O=C(Nc1cccc2ccccc12)c1ccc(Oc2nc3ccccc3s2)cc1" . Reported remaining activity at 100 µM?
RESULT: 91%

QUERY: Entry under review: "CCC(CC)C(=O)Oc1ccc(C(=O)Nc2cccc3ccccc23)cc1" . Reported remaining activity at 100 µM?
RESULT: 111%

QUERY: Entry under review: "O=C(Nc1cccc2ccccc12)c1ccc(OC(=O)C2CC2)cc1" . Reported remaining activity at 100 µM?
RESULT: 111%

QUERY: Entry under review: "CCCCN(CCCC)C(=O)Oc1ccc(C(=O)Nc2cccc3ccccc23)cc1" . Reported remaining activity at 100 µM?
RESULT: 135%

QUERY: Entry under review: "CCN(CC)C(=S)Oc1ccc(C(=O)Nc2ccc(F)cc2)cc1" . Reported remaining activity at 100 µM?
RESULT: 99%
